- Measured On: TRPML3 (Homo sapiens)
- Construct: expressed in transfected cells
- Sequence (Q8TDD5 whole entry): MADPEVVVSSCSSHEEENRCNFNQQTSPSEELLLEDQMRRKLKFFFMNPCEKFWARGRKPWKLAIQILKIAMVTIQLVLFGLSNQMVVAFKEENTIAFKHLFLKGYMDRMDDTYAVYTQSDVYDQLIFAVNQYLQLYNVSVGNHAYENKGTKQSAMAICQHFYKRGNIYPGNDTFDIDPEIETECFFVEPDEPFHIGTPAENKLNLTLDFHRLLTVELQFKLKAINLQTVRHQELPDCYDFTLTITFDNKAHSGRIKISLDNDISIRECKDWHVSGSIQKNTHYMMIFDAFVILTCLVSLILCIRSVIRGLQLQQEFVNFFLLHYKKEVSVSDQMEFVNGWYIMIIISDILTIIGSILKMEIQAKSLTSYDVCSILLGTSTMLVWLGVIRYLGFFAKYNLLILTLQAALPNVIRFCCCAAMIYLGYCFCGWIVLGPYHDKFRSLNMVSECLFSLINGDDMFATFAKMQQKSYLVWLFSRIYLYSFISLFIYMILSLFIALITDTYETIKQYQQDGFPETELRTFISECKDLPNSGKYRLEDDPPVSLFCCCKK
- Measurement Description: Fluorescent TRPML3 assay (performed as for TRPML1, substituting the TRPML3 subtype)
- Assay type: cell-based
Endpoint Name: EC50

Past entries and their recorded results:
# Compound, EC50
data = [
    ("C[C@@H]1CN(c2ncnc3c2c(C(F)F)cn3-c2cccc(Cl)c2)[C@@H](C)CN1C(=O)OC1(C)CC1", "< 100 nM"),
    ("C[C@@H]1CN(c2nccc3c2c(N2CCC2)cn3-c2cccc(F)c2)[C@@H](C)CN1C(=O)OC(C)(C)C", "< 100 nM"),
    ("C[C@H]1CN(C(=O)OC(C)(C)C)CCN1c1ncnc2c1c(C(F)(F)F)cn2-c1cc(F)cc(F)c1", "< 100 nM"),
    ("CC1CC1c1cn(-c2cccc(C#N)c2)c2ncnc(N3CCN(C(=O)OC(C)(C)C)C[C@@H]3C)c12 (stereo partly shown)", "< 100 nM"),
    ("C[C@H]1CN(C(=O)OC(C)(C)C)CCN1c1nccc2c1c(C1(C)CC1)cn2-c1cc(C#N)ccn1", "100 to 500 nM"),
    ("C[C@H]1CN(C(=O)OC(C)(C)C)CCN1c1ncnc2c1c(C(F)F)cn2-c1cc(C#N)ccn1", "< 100 nM"),
]

Per the records, this compound ( "[2H]C([2H])([2H])[C@@H]1CN(c2ncnc3c2c(C2CC2)cn3-c2cc(C#N)ccn2)[C@@H](C)CN1C(=O)OC(C)(C)C" ) has EC50 equal to 100 to 500 nM

// provenance: patent US20250136606A1
